# viability, T/C per entry
- Test system: 556581-035-R-J1 tumor spheroid viability, % test/control
- ASSAY OVERVIEW: Anticancer human tumor 556581-035-R-J1 patient-derived ovarian carcinoma cell line growth inhibition
- CONDITION: second compound 0.003 µM; first compound 0.00949 µM; stronger effect = lower value; spheroids with HUVEC and MSC

[
  {
    "COMPOUND": "Cn1ncnc1[C@H]1c2n[nH]c(=O)c3cc(F)cc(c23)N[C@@H]1c1ccc(F)cc1 + CC[C@@]1(O)C(=O)OCc2c1cc1n(c2=O)Cc2cc3c(CN(C)C)c(O)ccc3nc2-1",
    "viability, T/C": "105%"
  },
  {
    "COMPOUND": "Cc1sc2c(c1C)C(c1ccc(Cl)cc1)=NC(CC(=O)Nc1ccc(O)cc1)c1nnc(C)n1-2 (centres undefined) + CC[C@@]1(O)C(=O)OCc2c1cc1n(c2=O)Cc2cc3c(CN(C)C)c(O)ccc3nc2-1",
    "viability, T/C": "103%"
  },
  {
    "COMPOUND": "CNCc1ccc(-c2cc(-c3nc(-c4ccc(S(=O)(=O)C(C)C)cc4)cnc3N)on2)cc1 + CC[C@@]1(O)C(=O)OCc2c1cc1n(c2=O)Cc2cc3c(CN(C)C)c(O)ccc3nc2-1",
    "viability, T/C": "101%"
  },
  {
    "COMPOUND": "Cn1ncnc1[C@H]1c2n[nH]c(=O)c3cc(F)cc(c23)N[C@@H]1c1ccc(F)cc1 + COc1cc2c(cc1O)CCNC21CSC2c3c(OC(C)=O)c(C)c4c(c3C(COC1=O)N1C(O)C3Cc5cc(C)c(OC)c(O)c5C(C21)N3C)OCO4",
    "viability, T/C": "0.96%"
  }
]

* * *

Here, each record is paired with measured viability, T/C data.
- System: 556581-035-R-J1 tumor spheroid viability, % test/control
- ASSAY OVERVIEW: Anticancer human tumor 556581-035-R-J1 cell line growth inhibition;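 note: spheroids exposed to compounds for 7 days before viability read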
- CONDITION: second compound 0.000949 µM; first compound 0.949 µM; stronger effect = lower value; spheroids with HUVEC and MSC

[
  {
    "MOLECULE": "Cn1ncnc1[C@H]1c2n[nH]c(=O)c3cc(F)cc(c23)N[C@@H]1c1ccc(F)cc1 + COc1cc2c(cc1O)CCNC21CSC2c3c(OC(C)=O)c(C)c4c(c3C(COC1=O)N1C(O)C3Cc5cc(C)c(OC)c(O)c5C(C21)N3C)OCO4",
    "viability, T/C": "7.63%"
  },
  {
    "MOLECULE": "O=C(c1cc(Cc2n[nH]c(=O)c3ccccc23)ccc1F)N1CCN(C(=O)C2CC2)CC1 + COc1cc2c(cc1O)CCNC21CSC2c3c(OC(C)=O)c(C)c4c(c3C(COC1=O)N1C(O)C3Cc5cc(C)c(OC)c(O)c5C(C21)N3C)OCO4",
    "viability, T/C": "27.9%"
  },
  {
    "MOLECULE": "CNCc1ccc(-c2cc(-c3nc(-c4ccc(S(=O)(=O)C(C)C)cc4)cnc3N)on2)cc1 + COc1cc2c(cc1O)CCNC21CSC2c3c(OC(C)=O)c(C)c4c(c3C(COC1=O)N1C(O)C3Cc5cc(C)c(OC)c(O)c5C(C21)N3C)OCO4",
    "viability, T/C": "2.92%"
  },
  {
    "MOLECULE": "Cc1sc2c(c1C)C(c1ccc(Cl)cc1)=NC(CC(=O)Nc1ccc(O)cc1)c1nnc(C)n1-2 (centres undefined) + COc1cc2c(cc1O)CCNC21CSC2c3c(OC(C)=O)c(C)c4c(c3C(COC1=O)N1C(O)C3Cc5cc(C)c(OC)c(O)c5C(C21)N3C)OCO4",
    "viability, T/C": "1.81%"
  }
]

* * *

- Test system: 556581-035-R-J1 tumor spheroid viability, % test/control
- ASSAY OVERVIEW: Anticancer human tumor 556581-035-R-J1 cell line growth inhibition;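 note: spheroids exposed to compounds for 7 days before viability read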
- CONDITION: second compound 0.03 µM; first compound 3.16 µM; stronger effect = lower value; spheroids with HUVEC and MSC
Decide using viability, T/C alone. Strictly below 70%: label 1. Equal to or above 70%: label 0.

[
  {
    "MOLECULE": "Cc1cc(C)c(CNC(=O)c2cc(-c3ccc(CN4CCOCC4)cc3)cc3c2cnn3C2CCCC2)c(=O)[nH]1 + CC[C@@]1(O)C(=O)OCc2c1cc1n(c2=O)Cc2cc3c(CN(C)C)c(O)ccc3nc2-1",
    "GROUP LABEL": "label 1"
  },
  {
    "MOLECULE": "[2H]c1nc(C)nc([2H])c1-c1cc(NC[C@@H](C)c2cccc3c(C(=O)NC)ccnc23)ncn1 + CC[C@@]1(O)C(=O)OCc2c1cc1n(c2=O)Cc2cc3c(CN(C)C)c(O)ccc3nc2-1",
    "GROUP LABEL": "label 0"
  },
  {
    "MOLECULE": "CC(C)n1c(=O)n(C)c2cnc3cc(F)c(-c4ccc(OCCCN5CCCCC5)nc4)cc3c21 + CC[C@@]1(O)C(=O)OCc2c1cc1n(c2=O)Cc2cc3c(CN(C)C)c(O)ccc3nc2-1",
    "GROUP LABEL": "label 1"
  },
  {
    "MOLECULE": "COc1ccc([C@@H](O)c2cc(-c3ncnc4cc(N5CCOCC5)ccc34)c(F)cc2Cl)nn1 + CC[C@@]1(O)C(=O)OCc2c1cc1n(c2=O)Cc2cc3c(CN(C)C)c(O)ccc3nc2-1",
    "GROUP LABEL": "label 1"
  },
  {
    "MOLECULE": "CC1COCCN1c1cc(-c2ccnn2C)c2ccnc(-c3ccn[nH]3)c2n1 (stereo unspecified) + CC[C@@]1(O)C(=O)OCc2c1cc1n(c2=O)Cc2cc3c(CN(C)C)c(O)ccc3nc2-1",
    "GROUP LABEL": "label 1"
  }
]

* * *

- Tested on: 556581-035-R-J1 tumor spheroid viability, % test/control
- ASSAY OVERVIEW: Anticancer human tumor 556581-035-R-J1 cell line growth inhibition;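 note: spheroids exposed to compounds for 7 days before viability read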
- CONDITION: second compound 94.9 pM; first compound 3.16 µM; stronger effect = lower value; spheroids with HUVEC and MSC

[
  {
    "COMPOUND": "COc1cc(C)[nH]c(=O)c1CN1CCc2c(Cl)cc(C(OC)C3COC3)c(Cl)c2C1=O (centres undefined) + COc1cc2c(cc1O)CCNC21CSC2c3c(OC(C)=O)c(C)c4c(c3C(COC1=O)N1C(O)C3Cc5cc(C)c(OC)c(O)c5C(C21)N3C)OCO4",
    "viability, T/C (%)": 108
  },
  {
    "COMPOUND": "CC(C)n1c(=O)n(C)c2cnc3cc(F)c(-c4ccc(OCCCN5CCCCC5)nc4)cc3c21 + COc1cc2c(cc1O)CCNC21CSC2c3c(OC(C)=O)c(C)c4c(c3C(COC1=O)N1C(O)C3Cc5cc(C)c(OC)c(O)c5C(C21)N3C)OCO4",
    "viability, T/C (%)": 86
  },
  {
    "COMPOUND": "Cc1cc(C)c(CNC(=O)c2cc(-c3ccc(CN4CCOCC4)cc3)cc3c2cnn3C2CCCC2)c(=O)[nH]1 + COc1cc2c(cc1O)CCNC21CSC2c3c(OC(C)=O)c(C)c4c(c3C(COC1=O)N1C(O)C3Cc5cc(C)c(OC)c(O)c5C(C21)N3C)OCO4",
    "viability, T/C (%)": 110
  },
  {
    "COMPOUND": "[2H]c1nc(C)nc([2H])c1-c1cc(NC[C@@H](C)c2cccc3c(C(=O)NC)ccnc23)ncn1 + COc1cc2c(cc1O)CCNC21CSC2c3c(OC(C)=O)c(C)c4c(c3C(COC1=O)N1C(O)C3Cc5cc(C)c(OC)c(O)c5C(C21)N3C)OCO4",
    "viability, T/C (%)": 118
  }
]

* * *

# reported IC50; entries follow
- Tested on: 556581-035-R-J1 tumor spheroid viability, % test/control
- ASSAY OVERVIEW: Anticancer human tumor 556581-035-R-J1 cell line growth inhibition;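 note: spheroids exposed to compounds for 7 days before viability read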
- CONDITION: curve of first compound; second compound 31.6 µM; spheroids with HUVEC and MSC

[
  {
    "COMPOUND": "Cc1sc2c(c1C)C(c1ccc(Cl)cc1)=NC(CC(=O)Nc1ccc(O)cc1)c1nnc(C)n1-2 (stereo unspecified) + Cn1nnc2c(C(N)=O)ncn2c1=O",
    "IC50": "> 3 µM"
  },
  {
    "COMPOUND": "O=C(c1cc(Cc2n[nH]c(=O)c3ccccc23)ccc1F)N1CCN(C(=O)C2CC2)CC1 + Cn1nnc2c(C(N)=O)ncn2c1=O",
    "IC50": "> 30 µM"
  },
  {
    "COMPOUND": "Cc1cc(C)c(CNC(=O)c2cc(-c3ccc(CN4CCOCC4)cc3)cc3c2cnn3C2CCCC2)c(=O)[nH]1 + Cn1nnc2c(C(N)=O)ncn2c1=O",
    "IC50": "> 10 µM"
  },
  {
    "COMPOUND": "Cn1ncnc1[C@H]1c2n[nH]c(=O)c3cc(F)cc(c23)N[C@@H]1c1ccc(F)cc1 + Cn1nnc2c(C(N)=O)ncn2c1=O",
    "IC50": "1.95 µM"
  },
  {
    "COMPOUND": "[2H]c1nc(C)nc([2H])c1-c1cc(NC[C@@H](C)c2cccc3c(C(=O)NC)ccnc23)ncn1 + Cn1nnc2c(C(N)=O)ncn2c1=O",
    "IC50": "> 10 µM"
  },
  {
    "COMPOUND": "CC(C)n1c(=O)n(C)c2cnc3cc(F)c(-c4ccc(OCCCN5CCCCC5)nc4)cc3c21 + Cn1nnc2c(C(N)=O)ncn2c1=O",
    "IC50": "> 10 µM"
  }
]
